// values below are reported DC50
STUDY_SYSTEM: PLK1 (Homo sapiens, UniProt P53350)
Construct: endogenous in cells; host or cells: HeLa
Sequence (P53350 whole entry): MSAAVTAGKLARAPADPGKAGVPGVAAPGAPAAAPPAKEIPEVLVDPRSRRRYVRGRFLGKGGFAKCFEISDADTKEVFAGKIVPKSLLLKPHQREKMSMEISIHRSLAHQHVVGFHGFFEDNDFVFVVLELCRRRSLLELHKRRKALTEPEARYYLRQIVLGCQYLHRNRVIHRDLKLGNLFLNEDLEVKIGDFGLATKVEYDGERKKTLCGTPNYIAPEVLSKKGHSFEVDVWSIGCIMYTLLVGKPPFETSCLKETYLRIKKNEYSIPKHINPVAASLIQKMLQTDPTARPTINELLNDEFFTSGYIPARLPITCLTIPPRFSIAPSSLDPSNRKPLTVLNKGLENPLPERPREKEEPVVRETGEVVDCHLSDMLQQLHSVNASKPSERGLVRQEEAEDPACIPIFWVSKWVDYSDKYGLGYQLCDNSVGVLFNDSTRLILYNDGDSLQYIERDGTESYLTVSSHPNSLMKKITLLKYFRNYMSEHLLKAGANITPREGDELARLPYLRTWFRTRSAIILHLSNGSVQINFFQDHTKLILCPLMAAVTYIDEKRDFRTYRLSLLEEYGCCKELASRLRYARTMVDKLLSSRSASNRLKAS
TEST_SUMMARY: PLK1 protein degradation in HeLa cells, Western blotting (PLK1/GAPDH ratio)
Assay type: cell-based
TEST_CONDITIONS: 6 hours compound incubation, measured only if the grade of Dmax is A or B

Completed entries (count: 2):
MOLECULE	STUDY_SYSTEM	DC50
COc1cc(C(=O)NC2CCN(Cc3cn(CCOCCOCCOCCNc4cccc5c4C(=O)N(C4CCC(=O)NC4=O)C5=O)nn3)CC2)c(F)cc1Nc1ncc2c(n1)N(C1CCCC1)CC(F)(F)C(=O)N2C (stereo not drawn)	PLK1 (Homo sapiens, UniProt P53350)	≤ 50 nM
COc1cc(C(=O)NC2CCN(Cc3cn(CCOCCNc4cccc5c4C(=O)N(C4CCC(=O)NC4=O)C5=O)nn3)CC2)c(F)cc1Nc1ncc2c(n1)N(C1CCCC1)CC(F)(F)C(=O)N2C (stereo not drawn)	PLK1 (Homo sapiens, UniProt P53350)	≤ 50 nM

Here is another molecule to look at.
Entry COc1cc(C(=O)NC2CCN(CCCCCCCC(=O)Nc3cccc4c3C(=O)N(C3CCC(=O)NC3=O)C4=O)CC2)c(F)cc1Nc1ncc2c(n1)N(C1CCCC1)CC(F)(F)C(=O)N2C (stereo not drawn) : reported DC50 = ?
≤ 500 nM

====

STUDY_SYSTEM: PLK1 (Homo sapiens, UniProt P53350)
Construct: endogenous in cells; host or cells: HeLa
TEST_SUMMARY: PLK1 protein degradation in HeLa cells, Western blotting (PLK1/GAPDH ratio)
Format: cell-based
TEST_CONDITIONS: thymidine block and release, 6 hours compound incubation, 10 points three-fold from 3 μM, PLK1 to GAPDH ratio, read-out: Dmax
// values below are reported Dmax

COMPOUND	STUDY_SYSTEM	VALUE_OBSERVED
COc1cc(C(=O)NC2CCN(CCCCNc3cccc4c3C(=O)N(C3CCC(=O)NC3=O)C4=O)CC2)c(F)cc1Nc1ncc2c(n1)N(C1CCCC1)CC(F)(F)C(=O)N2C (centres unmarked)	PLK1 (Homo sapiens, UniProt P53350)	< 60%

Entry COc1cc(C(=O)NCCCOCCCOCCNc2cccc3c2CN(C2CCC(=O)NC2=O)C3=O)ccc1Nc1ncc2c(n1)N(C1CCCC1)CC(F)(F)C(=O)N2C (centres unmarked) : reported Dmax = ?
≥ 80%

Entry COc1cc(C(=O)N[C@H]2CCN(C(=O)CCC(=O)N3CCN(c4cccc5c4C(=O)N(C4CCC(=O)NC4=O)C5=O)CC3)C2)ccc1Nc1ncc2c(n1)N(C1CCCC1)CC(F)(F)C(=O)N2C (some centres unmarked) : reported Dmax = ?
≥ 80%

Entry COc1cc(C(=O)NC2CCN(C(=O)N3CCN(c4cccc5c4C(=O)N(C4CCC(=O)NC4=O)C5=O)CC3)CC2)c(F)cc1Nc1ncc2c(n1)N(C1CCCC1)CC(F)(F)C(=O)N2C (centres unmarked) : reported Dmax = ?
≥ 80%

Entry COc1cc(C(=O)NCC2CCCN(CCOCCNc3cccc4c3C(=O)N(C3CCC(=O)NC3=O)C4=O)C2)c(F)cc1Nc1ncc2c(n1)N(C1CCCC1)CC(F)(F)C(=O)N2C (centres unmarked) : reported Dmax = ?
≥ 80%

====

// values below are reported DC50
STUDY_SYSTEM: PLK1 (Homo sapiens, UniProt P53350)
Construct: endogenous in cells; host or cells: HeLa
TEST_SUMMARY: PLK1 protein degradation in HeLa cells, Western blotting (PLK1/GAPDH ratio)
Format: cell-based
TEST_CONDITIONS: 6 hours compound incubation, measured only if the grade of Dmax is A or B

Completed entries (count: 2):
MOLECULE	DC50
COc1cc(C(=O)NC2CCN(CCCCCCCCOc3cc(-c4scnc4C)ccc3CNC(=O)[C@@H]3C[C@@H](O)CN3C(=O)[C@@H](NC(=O)C3(F)CC3)C(C)(C)C)CC2)c(F)cc1Nc1ncc2c(n1)N(C1CCCC1)CC(F)(F)C(=O)N2C	≤ 500 nM
COc1cc(C(=O)NCC2CCCCN2CCOCCNc2cccc3c2C(=O)N(C2CCC(=O)NC2=O)C3=O)c(F)cc1Nc1ncc2c(n1)N(C1CCCC1)CC(F)(F)C(=O)N2C (stereo not drawn)	≤ 500 nM

For PLK1 (Homo sapiens, UniProt P53350), provide DC50 of COc1cc(C(=O)NCCCCCNC(=O)COc2cccc3c2C(=O)N(C2CCC(=O)NC2=O)C3=O)c(F)cc1Nc1ncc2c(n1)N(C1CCCC1)CC(F)(F)C(=O)N2C (stereo not drawn) please.
≤ 50 nM

====

STUDY_SYSTEM: PLK1 (Homo sapiens, UniProt P53350)
Construct: endogenous in cells; host or cells: HeLa
TEST_SUMMARY: PLK1 protein degradation in HeLa cells, Western blotting (PLK1/GAPDH ratio)
Format: cell-based
TEST_CONDITIONS: 6 hours compound incubation, measured only if the grade of Dmax is A or B
// values below are reported DC50

Completed entries (count: 2):
COMPOUND	VALUE_OBSERVED
COc1cc(C(=O)NC2CCN(Cc3cccc(CNC(=O)COc4cccc5c4C(=O)N(C4CCC(=O)NC4=O)C5=O)c3)CC2)c(F)cc1Nc1ncc2c(n1)N(C1CCCC1)CC(F)(F)C(=O)N2C (stereo not drawn)	≤ 0.05 µM
COc1cc(C(=O)NC2CCN(CC(=O)NCCOCCNc3cccc4c3C(=O)N(C3CCC(=O)NC3=O)C4=O)CC2)c(F)cc1Nc1ncc2c(n1)N(C1CCCC1)CC(F)(F)C(=O)N2C (stereo not drawn)	≤ 0.05 µM

Entry COc1cc(C(=O)NC2CCN(CCCC(=O)Nc3cccc4c3C(=O)N(C3CCC(=O)NC3=O)C4=O)CC2)c(F)cc1Nc1ncc2c(n1)N(C1CCCC1)CC(F)(F)C(=O)N2C (stereo not drawn) : reported DC50 = ?
≤ 0.5 µM

====

STUDY_SYSTEM: PLK1 (Homo sapiens, UniProt P53350)
Construct: endogenous in cells; host or cells: HeLa
TEST_SUMMARY: PLK1 protein degradation in HeLa cells, Western blotting (PLK1/GAPDH ratio)
Format: cell-based
TEST_CONDITIONS: 6 hours compound incubation, measured only if the grade of Dmax is A or B
READOUT_KIND: DC50

MOLECULE	DC50
CN1C(=O)C(F)(F)CN(C2CCCC2)c2nc(Nc3cc(F)c(C(=O)NC4CCN(CCOCCOCCNc5cccc6c5C(=O)N(C5CCC(=O)NC5=O)C6=O)CC4)cc3OC(F)(F)F)ncc21 (stereo not shown)	≤ 500 nM

Entry COc1cc(C(=O)NC2CCN(CCN3CCN(c4ccc5c(c4)C(=O)N(C4CCC(=O)NC4=O)C5=O)CC3)CC2)c(F)cc1Nc1ncc2c(n1)N(C1CCCC1)CC(F)(F)C(=O)N2C (stereo not shown) : reported DC50 = ?
≤ 500 nM

Entry COc1cc(C(=O)N[C@H]2CC[C@H](N3CCN(CCOCCNc4cccc5c4C(=O)N(C4CCC(=O)NC4=O)C5=O)CC3)CC2)c(F)cc1Nc1ncc2c(n1)N(C1CCCC1)CC(F)(F)C(=O)N2C (stereo partly shown) : reported DC50 = ?
≤ 50 nM

Entry CCOc1cc(C(=O)NC2CCN(CCOCCOCCNc3cccc4c3C(=O)N(C3CCC(=O)NC3=O)C4=O)CC2)c(F)cc1Nc1ncc2c(n1)N(C1CCCC1)CC(F)(F)C(=O)N2C (stereo not shown) : reported DC50 = ?
≤ 500 nM

====

STUDY_SYSTEM: PLK1 (Homo sapiens)
Construct: endogenous in cells; host or cells: HeLa
TEST_SUMMARY: PLK1 protein degradation in HeLa cells, Western blotting (PLK1/GAPDH ratio)
Type: cell-based
TEST_CONDITIONS: thymidine block and release, 6 hours compound incubation, 10 points three-fold from 3 μM, PLK1 to GAPDH ratio, read-out: Dmax
READOUT_KIND: Dmax

Completed entries (count: 4):
COMPOUND	Dmax
COc1cc(C(=O)NCCCCCCCc2cccc3c2CN(C2CCC(=O)NC2=O)C3=O)c(F)cc1Nc1ncc2c(n1)N(C1CCCC1)CC(F)(F)C(=O)N2C (centres unmarked) [Example 166]	60 to 80%
COc1cc(C(=O)NC2CCN(C(=O)CCCCNc3cccc4c3C(=O)N(C3CCC(=O)NC3=O)C4=O)C2)c(F)cc1Nc1ncc2c(n1)N(C1CCCC1)CC(F)(F)C(=O)N2C (centres unmarked) [Compound 117]	≥ 80%
COc1cc(C(=O)N[C@@H]2CCN(C(=O)CCCN3CCN(c4cccc5c4C(=O)N(C4CCC(=O)NC4=O)C5=O)CC3)C2)c(F)cc1Nc1ncc2c(n1)N(C1CCCC1)CC(F)(F)C(=O)N2C (some centres unmarked) [Compound 133]	≥ 80%
COc1cc(C(=O)NC2CCN(CCOCCOCC(=O)N[C@H](C(=O)N3C[C@H](O)C[C@H]3C(=O)NCc3ccc(-c4scnc4C)cc3)C(C)(C)C)CC2)c(F)cc1Nc1ncc2c(n1)N(C1CCCC1)CC(F)(F)C(=O)N2C [Compound 80]	< 60%

For PLK1 (Homo sapiens), provide Dmax of COc1cc(C(=O)NC2CCN(CCCOCCCCNc3cccc4c3C(=O)N(C3CCC(=O)NC3=O)C4=O)CC2)c(F)cc1Nc1ncc2c(n1)N(C1CCCC1)CC(F)(F)C(=O)N2C (centres unmarked) [Compound 20] please.
< 60%
